System: K4 kissing-loop RNA reporter
Method notes: apparent KD of K4 kissing-loop reporter; higher = weaker reporter binding
Run conditions: Eterna round: R107; input ligand: tryptophan 2.4 mM
Quantity name: apparent KD of K4 kissing-loop reporter (nM)
Please respond with the number in nM and leave the unit unwritten.

Input line: For the sequence shown here, UGGAUAUAGUGAUGUUAUAUAGAGAGGGAUACCAGUUUAGAGAAGAACCCUUGGCAGCCUAAAGAAGUAUCAUUAGAGAAGAAUG [ExTheophyl.An] , give the reported apparent KD of K4 kissing-loop reporter.
Output line: 241

Input line: Name the recorded apparent KD of K4 kissing-loop reporter for GAUUUAGAGGCGGCCGCCACUAGUGAUGUUAGUGAUGUUUGAUAGGGAAUAUAUCUGCGAGUAGAUAGGACCGGGCCAGAUGGAG [eccvbmullin] .
Output line: 151

Input line: Consider the sequence shown here: UGUCAUUGGUCGGCCGCCACUCCAUAACGAGUGAUGUUCUAAAAGACGGAUCGAAAGAUCUGUCGGAGGACCGGGACCGAUGACU [FiskerMod 6 - Jieux - Same State - Tryptophan B] What is its recorded apparent KD of K4 kissing-loop reporter?
Output line: 1140

Input line: Given the sequence AUAUGCAGGAGAAGGAGCGUCGUUUCAAGUGAUGUUUGCAAGCGAGCUUACUAUAUAAGACGACAGGUAGGUCGCUCCUGCGUAA [#06 K4 Arginine B Exclusion] , what is its reported apparent KD of K4 kissing-loop reporter?
Output line: 149

Input line: Any idea what apparent KD of K4 kissing-loop reporter was measured for CGAUGUUCCUGGGAUACCAGUCGGAGUCUCAGAGCUCGGAGUGAUGUUCUGGGAUGUUUCGGCCCUUGGCAGCUCUGGGACUCCC [#2 Exclusion - Theophylline B Attempt #23 (HarryS)] ?
Output line: 722

Input line: Would you kindly share the measured apparent KD of K4 kissing-loop reporter for GAUGAUCGCGCGGCCGCCACUGGUCAGUGAUGUUGACAUUAAUGCGCCGAGUAGUAACGGCGCAGUAGGACCGGGCGCGAUGUAG [#13 K4 Tryptophan B Same State] ?
Output line: 110

Input line: Look up apparent KD of K4 kissing-loop reporter for this sequence: AUAUUUAUUUAGUCACUUUUCAUAUUAUGUCAGGAUAUCGUAUUUUCGAGAAGGGACUCAUGGUAGUGAUGUUACCUAUUUCUCA [#03 K4 FMN A Exclusion]
Output line: 303

Input line: Quick check: apparent KD of K4 kissing-loop reporter of GGGUCUGCGCGAAGGAGCGCCCUGACAGGUUGCUGCCGUGGGCAGUGAUGUUGCUCAGUCCGGCAGGUAGGUCGCGUGCAGACCC ?
Output line: 160

Input line: // lookup apparent KD of K4 kissing-loop reporter for GAAUUGACGAGUGAUGUUCGUCCACAAUACCGAGGACCGGUACGGCCGCCACUCGAGCAAUGUGAAUAGGGUCGCGUUUUGCAGU
Output line: 187

---

Test system: K4 kissing-loop RNA reporter;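 further: bound reporter read as fluorescence of individual clusters on recovered sequencing chips by microscopy, with normalized cluster intensities fitted with a binding model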
Method notes: apparent KD of K4 kissing-loop reporter; higher = weaker reporter binding
Run conditions: Eterna round: R107; input ligand: arginine 13.2 mM
Quantity name: apparent KD of K4 kissing-loop reporter (nM)
# value in nM; strip the unit string

Input line: Could you tell me which apparent KD of K4 kissing-loop reporter is on file for AUAUGCAGGAGAAGGAGCGUCGUUUCAAGUGAUGUUUGCAAGCGAGCUUACUAUAUAAGACGACAGGUAGGUCGCUCCUGCGUAA [#06 K4 Arginine B Exclusion] ?
Output line: 150

Input line: Which apparent KD of K4 kissing-loop reporter is reported for this sequence? UUAUAUUUUAUAUUUAGUAGAGCUCUAGCUCGAGGACCGGUACGGCCGCCACUCGAGUGAUGUUCGAGUGGGUGAGCUCUACAUU [AK3 EXC Tryptophan A]
Output line: 95.7

Input line: Which apparent KD of K4 kissing-loop reporter reading was recorded for the sequence AUUUAAUUAACUGAUACCAGACUUAAUGUUUUGUAUAUUACUAGUGAUGUUAGUGAUUCUGUCCCUUGGCAGCAGUAUCUACUUA [JR_ExcTheophyB_Sub014] ?
Output line: 152

Input line: GET /values?readout=apparent KD of K4 kissing-loop reporter&item= AGCAAUAUCACGGCCGCCACUGAAUAUUGUUUUUAUAGUUAUAAAUCUUGCCAGUGAUGUUGGUUCAGGACCGGGUGAGUUAAUA [JR_SSTryptoB_Sub003]
Output line: 596

Input line: Would you kindly share the measured apparent KD of K4 kissing-loop reporter for AGGCACGAGCAAGGAUAUCGAGUAGAGUGAUGUUCUGCCUGGGUUGGCUCGAAAGGGCCUUCCCAGCGAGAAGGUGCUCGUGCCU [#2 Same State - FMN A Attempt #14 (HarryS)] ?
Output line: 325

Input line: Would you kindly share the measured apparent KD of K4 kissing-loop reporter for GGGUCUGCGCGAAGGAGCGCCCUGACAGGUUGCUGCCGUGGGCAGUGAUGUUGCUCAGUCCGGCAGGUAGGUCGCGUGCAGACCC ?
Output line: 161

---

Could you please report measured apparent KD of MS2 coat protein for the items listed next?
System: MS2 coat protein
Method notes: apparent KD of MS2 coat protein; designed switch direction (-1 OFF switch, 1 ON switch): -1; higher = weaker reporter binding
Run conditions: input ligand: FMN 200 uM
Give just the numeric value; nM need not be written.

Input line: // apparent KD of MS2 coat protein lookup, key: CGUCCUGAUGACAACUUACAUGAGGAUCACCCAUGUGCCUCGCAGGAUAUCCCAGCACGUCGCAAGGAGAAGGGCGACGCGCCA [Ceeninge] (Eterna round: R96, puzzle: Exclusion NG 3)
Output line: 18

Input line: So what does the record say about apparent KD of MS2 coat protein for CCGGCUGCUGUGAGGAUAUGCCUGCGCGCCCGCGGGCAGAAGGCACAUGAGGAUCACCCAUGUCCUGCGGUCCC [salish99_bmx4_r4_119] (Eterna round: R97, puzzle: Brourd's mod of Exclusion 4) ?
Output line: 45.2

Input line: Look up apparent KD of MS2 coat protein for this sequence: CGUUGGAAAGGAUAUACAUGAGGAUCACCCAUGUGAAAUUAUAGUGAGGAAAUGAAAAGUAGAAGGUUCUGACA [Mod of Mat 6 - Jieux - Exclusion 3] (Eterna round: R97, puzzle: Exclusion 3)
Output line: 61.2

Input line: Find the recorded apparent KD of MS2 coat protein belonging to CCUCCGCAUUAGGAUAUCGUCCCGGAAACGGGACGAGAAGGAAUGACAUGAGGAUCACCCAUGUUAACGUGAUG [Mod of Brourd 18 - Jieux - Exclusion 6] (Eterna round: R97, puzzle: Exclusion 6) and report it.
Output line: 304

Input line: GET /values?readout=apparent KD of MS2 coat protein&item= CUUUUGUGAGGAUAUUAAUAGUAAGUAAAUAAAAUUAUUACUAAGAAGGCACAUGAGGAUCACCCAUGUUCCUC [EX4 #82] (Eterna round: R97, puzzle: Exclusion 4)
Output line: 102

Input line: Sample CGUAUGUCAGGAUAUCGUGCAUACAACGAAAGUUCUAUGUGCGAGAAGGGACAUGAGGAUCACCCAUGUCUUCG [Omei Ex4 A13] (Eterna round: R97, puzzle: Exclusion 4) — what was its apparent KD of MS2 coat protein?
Output line: 42.8

Input line: Fill in the blank: the reported apparent KD of MS2 coat protein of ACACAUGAGGAUCACCCAUGUCGGGUCAUAUCCUUCGAGGGCUAGGAUAUCGGGACUACGAAGCCCGAGAAGGAGCACUCGUUA [Ceorsobi] (Eterna round: R96, puzzle: Exclusion NG 3) is ____.
Output line: 251

Input line: Can you look up the measured apparent KD of MS2 coat protein of UGUUGUUACGCAGGAUAUGUAUGAGGAUCACCCAUAAAACACACACUCCCAUGAGGAUCACCCAUGUAGAAGGGCGGGUUAACA [pwkr exNG2 2xF5 1xFMN.8] (Eterna round: R96, puzzle: Exclusion NG 2) for me?
Output line: 124

Input line: Item CUGCUCCGUGUAGGAUAUGCAUACCACCACUAUGCAGAAGGACAUGAGGAUCACCCAUGUAUGUUAUUAUCACGUGAAGCGUCC [Design 19] (Eterna round: R96, puzzle: Exclusion NG 1) has what recorded apparent KD of MS2 coat protein?
Output line: 27.8

Input line: Given GUAUAACAUGAGGAUCACCCAUGUCAGGAUAUGCGAAUUUCAUCAAAAGAUGAAAUUUGCAGAAGGGACUGUAC [Omei Ex1 A25] (Eterna round: R97, puzzle: Exclusion 1) , state its recorded apparent KD of MS2 coat protein.
Output line: 73.9

Input line: So what's the measured apparent KD of MS2 coat protein for this one? GCUGCUAGAGGAUAUACAUGAGGAUCACCCAUGUGAAAUUAUAGUGAGGAAAUGAAAAGUAGAAGGCUAGUAGA [Mod of Mat 16 - Jieux - Exclusion 3] (Eterna round: R97, puzzle: Exclusion 3)
Output line: 381

Input line: Give the measured apparent KD of MS2 coat protein of CUCUUGUGAGGAUAUCGAAGAAAAGAAAAGAAAGAAAAGAACGAGAAGGCACAUGAGGAUCACCCAUGUAAGAA [EteRNA is fun!] (Eterna round: R96, puzzle: Exclusion 4) .
Output line: 127

Input line: Dear colleague, I am looking for the recorded apparent KD of MS2 coat protein of the following sequence: AUCGUGCAGCAAAGCUGUACGAGUACAUGAGGAUCACCCAUGUAGGAUAUGGUACGCAAAGCGUGCUAGAAGGAUAUGUGUAGG [Mat - Exclusion NG 3 - Mod of JL - D84] (Eterna round: R96, puzzle: Exclusion NG 3)
Output line: 69.6

Input line: Please look up its apparent KD of MS2 coat protein: UUUAGUUCAGGAUAUGUAGAUUUUAACAUGAGGAUCACCCAUGUAGAUCCUGAUCCUGCUACAGAAGGGAAAAUUU [Mat - Exclusion 5 - Eli Mod - D9] (Eterna round: R97, puzzle: Exclusion 5)
Output line: 24.4

Input line: What value of measured apparent KD of MS2 coat protein is listed for CUAAAUCAUGUAGGAUAUGCGUGGCAAAGCUAUGCAGAAGGACAUGAGGAUCACCCAUGUCUUUCCGUCUGAGUACAGACGGGA [Mat - Exclusion NG 1 - Mod of JL - D46] (Eterna round: R96, puzzle: Exclusion NG 1) ?
Output line: 166

Input line: Quick one: apparent KD of MS2 coat protein of UGAUCUAGCGGAGGAUAUACAUGAGGAUCACCCAUGUAGACUCUAUGACCGUAGUCGUGGAGAGUGUAGAAGGCCGCUAGAUCU [JL ENG2 3.75] (Eterna round: R96, puzzle: Exclusion NG 2) ?
Output line: 16.6

Input line: Can you share its apparent KD of MS2 coat protein? I mean this sequence: ACUUAUAGAGGAUAUACAGUUAAUUACAUGAGGAUCACCCAUGUUCUUCAAUGUAUAUAAGUAGAAGGCUAAAGGA [Mat - Exclusion 5 - Eli Mod - D6] (Eterna round: R97, puzzle: Exclusion 5)
Output line: 198

Input line: Entry under review: UCUAGUUCAGGAUAUGUAGAUUUUAACAUGAGGAUCACCCAUGUAGAUCCUGAAUUAGCUACAGAAGGGAACAUUU [Mod of Brourd 2 - Jieux - Exclusion 5] (Eterna round: R97, puzzle: Exclusion 5) . Reported apparent KD of MS2 coat protein?
Output line: 18.1

Data credit: the supplement of paper PMC9170038
